system: acid-ethanol induced gastric lesions; experiment: Inhibition of acid-ethanol induced gastric lesions in rats (cytoprotection); assay type: in vivo; conditions: rat, oral, Dose 25 μg kg^-1
Please provide measured % inhibition for the entries that follow.
Answers are plain numbers, in %.

| compound | test system | readout units | measured |
| --- | --- | --- | --- |
| O=C(O)CCCCCCC1C(=O)NC(=O)N1N=CC(O)C1CCCCC1 (single isomer, unassigned) | acid-ethanol induced gastric lesions | % | 50 |

Give me % inhibition for each of these compounds, listed below.
1. O=C(O)CCCCCCC1C(=O)NC(=O)N1N=CCC1CCCCC1 (stereo not shown)
2. O=C(O)CCCCCCC1C(=O)NC(=O)N1CCC(O)C1CCCCC1 (stereo not shown) [Compound X, reference compound]
3. O=C(O)CCCCCCC1C(=O)NC(=O)N1NCC(O)C1CCCCC1 (stereo not shown)

Reply:
71
89
65

====

system: platelet aggregation; experiment: Inhibition of platelet aggregation in human platelet-rich plasma (Born-type aggregometer, ADP or other aggregating agent); assay type: cell-based; conditions: Homo sapiens, Platelet, 1 min, human PRP, 1 min incubation at 37°C before aggregating agent; read-out: IC50
The label is Fulfilled for IC50 below 6 ng/mL and Not fulfilled for IC50 equal to or exceeding 6 ng/mL.

Solved entries (count: 6):
| compound | test system | group label |
| --- | --- | --- |
| CCCCCC(O)CNN1C(=O)NC(=O)C1CCCCCCC(=O)O (centres unmarked) [35/36] | platelet aggregation | Fulfilled |
| CN1C(=O)C(CCCCCCC(=O)O)N(NCC(O)C2CCCCC2)C1=O (centres unmarked) | platelet aggregation | Fulfilled |
| O=C(O)CCCCCCC1C(=O)NC(=O)N1N=CC(O)C1CCCCC1 (centres unmarked) [Compound No. 3] | platelet aggregation | Not fulfilled |
| O=C(O)CCCCCCC1C(=O)NC(=O)N1CCC(O)C1CCCCC1 (centres unmarked) [Compound X, reference compound] | platelet aggregation | Fulfilled |
| CCCCCC(O)CNN1C(=O)NC(=O)C1CCCCCCC(=O)O (single isomer, unassigned) [Compound No. 35] | platelet aggregation | Not fulfilled |
| O=C(O)CCCCCCC1C(=O)NC(=O)N1N=CC(O)C1CCCCC1 (single isomer, unassigned) [Compound No. 6] | platelet aggregation | Fulfilled |

Turning now to a further compound:
Ask: Hi there! Is IC50 for CN1C(=O)C(CCCCCCC(=O)O)N(N=CC(O)C2CCCCC2)C1=O (centres unmarked) below 6 ng/mL, do you know?
Reply: Not fulfilled

====

system: acid-ethanol induced gastric lesions; assay: Inhibition of acid-ethanol induced gastric lesions in rats (cytoprotection); type: in vivo; details: rat, oral, Dose 10 μg kg^-1
Would you kindly list % inhibition for each of these molecules?
Give bare numbers, in %.

Illustrative cases are given below, each with its answer.
| molecule | % inhibition, % |
| --- | --- |
| CN1C(=O)C(CCCCCCC(=O)O)N(NCC(O)C2CCCCC2)C1=O (stereo not shown) | 71 |
| O=C(O)CCCCCCC1C(=O)NC(=O)N1CCC(O)C1CCCCC1 (stereo not shown) [Compound X, reference compound] | 80 |
| O=C(O)CCCCCCC1C(=O)NC(=O)N1N=CC(O)C1CCCCC1 (single isomer, unassigned) | 31 |

Memo: O=C(O)CCCCCCC1C(=O)NC(=O)N1N=CC(O)Cc1ccccc1 (stereo not shown) , reported % inhibition: 55
